# Tested on: Candida albicans
# testSummary: Antifungal activity against Candida albicans CA17 assessed as fungal growth inhibition by broth microdilution assay
# Format: functional
measuredParameter: MIC50 (µg/mL)
Only the number, expressed in µg/mL, is required.

smilesCode	MIC50 / µg/mL
CCCCCCCC/C=C\CCCCCCCC(=O)N[C@@H](CCCCN)C(=O)N[C@@H](Cc1ccccc1)CN(CC(N)=O)C(=O)CCN	4
CCCCCCCCCCCCCCCC(=O)N[C@@H](CCCN)C(=O)N[C@@H](Cc1ccccc1)CN(CC(N)=O)C(=O)CCN	2
CCCCCCCCCCCCCCCCCC(=O)N[C@@H](CCCCN)C(=O)N[C@@H](Cc1ccccc1)CN(CC(N)=O)C(=O)CCN	4
CCCCCCCCCCCCCCCC(=O)N[C@@H](CCCCN)C(=O)N[C@@H](Cc1ccccc1)CN(CC(N)=O)C(=O)CCN	4

Requested read-out: MIC50. Entry: CCCCCCCCCCCCCCCC(=O)N[C@@H](CCCCN)C(=O)N[C@@H](Cc1ccccc1)CN(CC(N)=O)C(=O)CN
8

====

# testSummary: Selectivity ratio of HC50 for hemolytic activity in human RBC to MIC for antifungal activity against Candida krusei ATCC6258
# Assay type: toxicity
# conditions: red blood cells (erythrocytes)
Overview of recorded selectivity ratio for various molecules

Worked examples, 4 molecules total:
smilesCode	selectivity ratio
CCCCCCCCCCCCCCCC(=O)N[C@@H](CCCCN)C(=O)N[C@@H](Cc1ccccc1)CN(CC(N)=O)C(=O)CN	≤ 125
CCCCCCCCCCCCCCCCCC(=O)N[C@@H](CCCCN)C(=O)N[C@@H](Cc1ccccc1)CN(CC(N)=O)C(=O)CCN	≤ 125
CCCCCCCC/C=C\CCCCCCCC(=O)N[C@@H](CCCCN)C(=O)N[C@@H](Cc1ccccc1)CN(CC(N)=O)C(=O)CCN	≤ 125
CCCCCCCCCCCCCCCC(=O)N[C@@H](CCCN)C(=O)N[C@@H](Cc1ccccc1)CN(CC(N)=O)C(=O)CCN	≤ 125

Requested read-out: selectivity ratio. Entry: CCCCCCCCCCCCCCCC(=O)N[C@@H](CCCCN)C(=O)N[C@@H](Cc1ccccc1)CN(CC(N)=O)C(=O)CCN
≤ 125
